Measured residual activity accompanies every entry in the list below.
target: JAK2 JH1 JH2 (human) (UniProt O60674); experiment: radiometric filter-binding kinase assay; conditions: compound 1.0 µM
Sequence (O60674 whole entry, looked up): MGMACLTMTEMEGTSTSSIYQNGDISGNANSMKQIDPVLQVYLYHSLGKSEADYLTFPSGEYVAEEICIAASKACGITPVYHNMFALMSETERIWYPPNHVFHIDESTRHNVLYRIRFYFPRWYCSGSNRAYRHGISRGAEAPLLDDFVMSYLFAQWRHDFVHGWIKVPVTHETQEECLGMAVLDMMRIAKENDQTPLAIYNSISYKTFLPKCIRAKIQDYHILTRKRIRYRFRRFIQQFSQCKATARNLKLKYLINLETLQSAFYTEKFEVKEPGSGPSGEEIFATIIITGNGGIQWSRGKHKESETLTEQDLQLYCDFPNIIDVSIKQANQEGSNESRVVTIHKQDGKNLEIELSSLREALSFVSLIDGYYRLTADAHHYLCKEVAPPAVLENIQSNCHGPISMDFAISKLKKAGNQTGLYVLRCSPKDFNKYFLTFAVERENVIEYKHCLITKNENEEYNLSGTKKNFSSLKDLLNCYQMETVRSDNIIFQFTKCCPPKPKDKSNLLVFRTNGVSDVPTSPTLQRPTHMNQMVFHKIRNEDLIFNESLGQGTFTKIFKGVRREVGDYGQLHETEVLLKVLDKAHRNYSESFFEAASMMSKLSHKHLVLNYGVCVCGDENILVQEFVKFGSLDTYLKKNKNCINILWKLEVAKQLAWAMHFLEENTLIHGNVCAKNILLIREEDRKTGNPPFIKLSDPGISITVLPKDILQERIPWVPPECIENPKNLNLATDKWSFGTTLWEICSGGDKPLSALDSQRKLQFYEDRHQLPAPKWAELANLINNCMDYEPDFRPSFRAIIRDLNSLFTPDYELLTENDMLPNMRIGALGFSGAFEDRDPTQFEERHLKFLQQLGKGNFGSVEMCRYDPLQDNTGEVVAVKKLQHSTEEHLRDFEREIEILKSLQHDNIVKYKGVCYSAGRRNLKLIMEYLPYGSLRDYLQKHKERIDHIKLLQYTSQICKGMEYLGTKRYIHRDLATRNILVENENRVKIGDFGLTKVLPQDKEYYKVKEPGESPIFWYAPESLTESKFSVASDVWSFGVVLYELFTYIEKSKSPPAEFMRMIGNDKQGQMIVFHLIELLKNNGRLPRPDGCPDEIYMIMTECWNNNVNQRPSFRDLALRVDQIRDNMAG

compound | residual activity, %
CC(C)(C#N)c1ccc(N2C(=O)OCc3cnc4ccc(-c5cnc6ccccc6c5)cc4c32)cc1 | 26
COc1cc2ncn(-c3cc(OCc4ccccc4S(C)(=O)=O)c(C#N)s3)c2cc1OC | 34
c1ccc2c(-c3cnn4cc(-c5ccc(N6CCNCC6)cc5)cnc34)ccnc2c1 | 104
COc1ccc(N(C(=O)Nc2c(C)cccc2C)c2cc(Nc3ccc(N4CCN(C)CC4)cc3)ncn2)c(OC)c1 | 89
NC(=O)c1cc(-c2ccnc(NC3CCCCC3)c2)nc(N2CCNCC2)c1 | 87
O=C(Nc1ccccc1-c1cn2c(CN3CCNCC3)csc2n1)c1cnc2ccccc2n1 | 90
FC(F)(F)c1ccc(-c2ccc(Oc3cncc4sc(-c5nn[nH]n5)cc34)cc2)cc1 | 99
Cc1cccc(-c2nn(C(=S)Nc3ccccc3)cc2-c2ccnc3ccccc23)n1 | 93
O=C(Nc1nc2cc(C(F)(F)F)cc(NC3CC3)n2n1)c1cccnc1 | 100
C=C1C(=O)OC2C1CC/C(C)=C/CCC1(C)OC21 (stereo not given) | 116
C=CC(=O)N1CCC[C@@H](n2nc(-c3ccc(Oc4ccccc4)cc3)c3c(N)ncnc32)C1 | 103
NC(=O)c1c(NC(=O)C2CC2)sc2c1CCCC2 | 104
CNC(=O)C1[C@H]2O[C@@](C)([C@@H]1N)n1c3ccccc3c3c4c(c5c6ccccc6n2c5c31)C(=O)NC4 (stereo not given in full) | 7
O=C(NCCCNc1nc(Nc2cccc(CN3CCOCC3)c2)ncc1C1CC1)C1CCC1 | 14
NC(=O)c1cc2c(-c3cccc(-c4ccccc4)c3)cnc(N)c2s1 | 90
Cc1ccc(=O)n(-c2ccccc2)c1 | 103
O=c1c(O)c(-c2ccc(O)c(O)c2)oc2cc(O)c(O)c(O)c12 | 91
Cc1ccc(Sc2cnc(Nc3cccc(Br)n3)s2)cc1C(=O)N1CCN(C(=O)CN)CC1 | 80
NS(=O)(=O)OC[C@@H]1C[C@@H](n2ccc3c(N[C@H]4CCc5ccccc54)ncnc32)C[C@@H]1O | 89
CC1=C(CO)C(=O)O[C@@H]([C@@H](C)[C@H]2CC[C@H]3[C@@H]4C[C@H]5O[C@]56[C@@H](O)C=CC(=O)[C@]6(C)C4CC[C@]23C)C1 (stereo not given in full) | 98
